# System tested: ELK1 (Homo sapiens, UniProt P19419 1-428)
# Sequence: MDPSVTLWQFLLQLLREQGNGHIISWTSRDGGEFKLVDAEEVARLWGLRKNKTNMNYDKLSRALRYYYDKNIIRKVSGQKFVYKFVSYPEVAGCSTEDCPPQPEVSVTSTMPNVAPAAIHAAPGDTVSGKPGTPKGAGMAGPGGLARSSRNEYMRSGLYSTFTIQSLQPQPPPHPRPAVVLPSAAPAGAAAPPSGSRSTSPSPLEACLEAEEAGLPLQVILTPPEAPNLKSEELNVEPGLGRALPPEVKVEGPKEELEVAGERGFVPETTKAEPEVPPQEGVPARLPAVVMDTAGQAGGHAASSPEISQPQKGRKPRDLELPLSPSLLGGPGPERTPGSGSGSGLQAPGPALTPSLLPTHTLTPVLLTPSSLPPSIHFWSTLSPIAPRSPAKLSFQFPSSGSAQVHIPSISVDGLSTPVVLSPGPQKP
# Experimental protocol: custom PBM; custom protein-binding microarray; buffer, salt, pH and temperature not stated; high values mean tight binding
# Test settings: dsDNA, one strand shown
In all, about 1,300 sequences were measured (“log fluorescence intensity”: median about 8.9, highest 2% from about 13 on). The sample holds the highest values, similar sequences and a random draw of the others, so the mix is not that of the screen.
Measured endpoint: binding signal

GCTGCTGCGGTGCATAGCCCACCGGATGTGACCCCGGTCTTGATTCGCTTGACGCTGCTG 10.4 log fluorescence intensity
ATGGGACTTGACCCAACTCTGCCACGTGGGTCGTTTGTCTTGATTCGCTTGACGCTGCTG 8.96 log fluorescence intensity
TAAAGGGAAGACGGTTGTGGTTGTTCCGGGTATTAAGTCTTGATTCGCTTGACGCTGCTG 10.5 log fluorescence intensity
CGGAAGTGTCGTAAACGTCGGATATACGGTTCTTCTGTCTTGATTCGCTTGACGCTGCTG 9.29 log fluorescence intensity

Proceeding to the next sequence to report its binding signal.
Ask: Consider the sequence `TAAAGGGAAGACGGTTGTGGTAGTTCCGGGTACTAAGTCTTGATTCGCTTGACGCTGCTG` . State its measured binding signal.
Result: 11.3 log fluorescence intensity
